system: NCI-H226 lung; experiment: NCI tumour cell line growth inhibition, 48 h; in the data active = GI50 below about 0.43 µM; inactive = the rest
Labels: class 1 (active), class 0 (inactive)

[[record]]
compound = "COc1cc(N=Nc2cc(Cc3ccc(N(C)C)cc3)c(N)cc2N(C)C)c2ncccc2c1"
qualitative_label = "class 0"

[[record]]
compound = "CC1(C)CC(O)CC(C)(C)N1O"
qualitative_label = "class 0"

[[record]]
compound = "O=C(Nc1cccc(-n2ccc3c(NC(=O)c4ccccc4)ncnc32)c1)Nc1ccc(Cl)c(C(F)(F)F)c1"
qualitative_label = "class 0"

[[record]]
compound = "CCSC[C@@H]1C[C@](O)(c2ccccc2)[C@@H](c2ccccc2)O1"
qualitative_label = "class 0"

[[record]]
compound = "Nc1ncn([C@H]2CC(O)[C@@H](CO)S2)c(=O)n1 (stereo not given in full)"
qualitative_label = "class 0"

[[record]]
compound = "COc1ccc(-c2nsc3c2NC(=O)CC3c2ccsc2)cc1 (stereo not given)"
qualitative_label = "class 0"

[[record]]
compound = "NNc1c(C(N)=O)c2c(N)ncnc2n1C1OC(CO)C(O)C1O (stereo not given)"
qualitative_label = "class 1"

[[record]]
compound = "CNC(=O)CCN1CCN(CC/C=C2\\c3ccccc3Sc3ccc(Cl)cc32)CC1"
qualitative_label = "class 0"

[[record]]
compound = "Clc1ccc(C=Nc2ccc(-c3nc4ccccc4[nH]3)cc2)cc1"
qualitative_label = "class 0"

[[record]]
compound = "CCCN1C(=O)/C(=C/c2ccc(SC(F)(F)F)cc2)SC1=Nc1ccc(OC)cc1"
qualitative_label = "class 0"

